Measured RLU values are reported for all entries that follow.
molecular target: human serum albumin (human) (UniProt P02768); test: solution ELISA screen (luminescence)
Sequence (P02768 25-609 limits assumed): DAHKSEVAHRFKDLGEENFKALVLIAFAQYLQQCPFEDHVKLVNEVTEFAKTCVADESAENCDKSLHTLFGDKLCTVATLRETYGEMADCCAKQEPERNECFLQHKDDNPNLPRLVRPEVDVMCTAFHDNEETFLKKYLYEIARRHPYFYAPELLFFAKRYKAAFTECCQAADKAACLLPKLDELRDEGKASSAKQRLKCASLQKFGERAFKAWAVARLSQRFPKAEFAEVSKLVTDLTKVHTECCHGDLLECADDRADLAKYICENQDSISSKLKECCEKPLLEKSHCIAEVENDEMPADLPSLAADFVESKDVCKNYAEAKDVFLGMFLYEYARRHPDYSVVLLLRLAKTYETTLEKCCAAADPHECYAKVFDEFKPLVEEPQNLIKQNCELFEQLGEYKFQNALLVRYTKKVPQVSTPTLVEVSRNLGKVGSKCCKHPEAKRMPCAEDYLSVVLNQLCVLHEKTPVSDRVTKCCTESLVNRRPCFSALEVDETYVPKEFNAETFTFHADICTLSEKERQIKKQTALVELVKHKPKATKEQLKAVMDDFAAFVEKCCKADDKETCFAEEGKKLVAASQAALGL

- binder: "SEQ ID NO 243 (designed binder, not shown: small tags and cut ends) MLPAPKNLVVSRVTEDSARLSWTAPDAAFDSFFIGYLEPQPPGEAIHLAVPGSERSYDLTGLKPGTEYNVTIQGVKGGFPSVPLAAVFTT"
  RLU [RLU]: 30900
- binder: "SEQ ID NO 211 (designed binder, not shown: small tags and cut ends) MLPAPKNLVVSRVTEDSARLSWTAPDAAFDSFYIAYAEPRPDGEAIQLHVPGSERSYDLTGLKPGTEYSVLIHGVKGGLLSSPLVAIFTT"
  RLU [RLU]: 13000
- binder: "SEQ ID NO 264 (designed binder, not shown: small tags and cut ends) MLPAPKNLVVSRVTEDSARLSWTAPDAAFDSFYIAYAEPRPDGEAINLSVPGSERSYDLTGLKPGTEYSVLIHGVKGGLLSSPLDAYFTT"
  RLU [RLU]: 24400
- binder: "SEQ ID NO 265 (designed binder, not shown: small tags and cut ends) MLPAPKNLVVSRVTEDSARLSWTAPDAAFDSFYIAYAEPRPDGEAIVLEVPGSERSYDLTGLKPGTEYSVLIHGVKGGLLSSPLTASFTT"
  RLU [RLU]: 30700
- binder: "SEQ ID NO 259 (designed binder, not shown: small tags and cut ends) MLPAPKNLVVSRVTEDSARLSWTAPDAAFDSFYIAYAEPRPDGEAIQLGVPGSERSYDLTGLKPGTEYSVLIHGVKGGLLSSPLLAVFTT"
  RLU [RLU]: 25400
- binder: "SEQ ID NO 204 (designed binder, not shown: small tags and cut ends) MLPAPKNLVVSRVTEDSARLSWTAPDAAFDSFFIGYLEPQPPGEAILLWVPGSERSYDLTGLKPGTEYNVTIQGVKGGFPSQFTT"
  RLU [RLU]: 20000
- binder: "SEQ ID NO 229 (designed binder, not shown: small tags and cut ends) MLPAPKNLVVSRVTEDSARLSWTAPDAAFDSFYIAYAEPRPDGEAIQLLVPGSERSYDLTGLKPGTEYSVLIHGVKGGLLSSPLVAHFTT"
  RLU [RLU]: 15400
- binder: "SEQ ID NO 235 (designed binder, not shown: small tags and cut ends) MLPAPKNLVVSRVTEDSARLSWTAPDAAFDSFFIGYLEPQPPGEAIQLTVPGSERSYDLTGLKPGTEYNVTIQGVKGGFPSLPLSADFTT"
  RLU [RLU]: 23800
